Entry source: the Immune Epitope Database (IEDB)

molecular target: HLA-A*02:06; experiment: IEDB peptide-MHC binding, purified MHC/competitive/radioactivity; filed as Kd, often an IC50 or EC50 that approximates it; bounds were set here for any values at or beyond the usual limits of such assays; conditions: source organism: SARS coronavirus Tor2
ENDPOINT NAME: Kd (nM)

>>> print(df.to_string())
    residue_string  target_or_system  numeric_readout
 0       VLAWLYAAV       HLA-A*02:06             8.79
 1       FLNGSCGSV       HLA-A*02:06             64.5
 2       FLAFLLFLV       HLA-A*02:06                9
 3       MLLTFLTSL       HLA-A*02:06             3.63
 4       QLMCQPILL       HLA-A*02:06             76.9
 5       YLSSVLLAL       HLA-A*02:06             8.16
 6       TLGVYDYLV       HLA-A*02:06             74.8
 7       NLLLLFVTI       HLA-A*02:06              456
 8      IMLIIFWFSL       HLA-A*02:06            16800
 9       ALYKGFQFI       HLA-A*02:06             2.03
10      LMLKATLLCV       HLA-A*02:06             63.4
11       GLMWLSYFV       HLA-A*02:06            0.975
12      IAMWLLLLSI       HLA-A*02:06              498

====

target: HLA-B*51:01; test: IEDB peptide-MHC binding, purified MHC/competitive/fluorescence; filed as Kd, often an IC50 or EC50 that approximates it; bounds were set here for any values at or beyond the usual limits of such assays; details: source organism: Yersinia pestis Nepal516
pKd: −log10 of the molar value.
ENDPOINT NAME: pKd

>>> df
   residue_string  endpoint_name  result
0       LELIGNAES            pKd  ≤ 4.70

====

target: HLA-B*58:01; test: IEDB peptide-MHC binding, purified MHC/direct/fluorescence; filed as Kd, often an IC50 or EC50 that approximates it; bounds were set here for any values at or beyond the usual limits of such assays; details: source organism: SARS-CoV1
pKd: −log10 of the molar value.
In this section, each of the sequences is paired with its reported pKd.
ENDPOINT NAME: pKd

>>> df
   residue_string  numeric_readout
0       FMGRIRSVY             5.22
1       NQATTKTTF             5.03
2       TTLPVNVAF             6.48
3       FADINGKLY             5.65

====

target: HLA-A*11:01; assay: IEDB peptide-MHC binding, purified MHC/direct/fluorescence; filed as Kd, often an IC50 or EC50 that approximates it; bounds were set here for any values at or beyond the usual limits of such assays; conditions: source organism: Escherichia coli O157:H7
pKd: −log10 of the molar value.
Below: a set of entries, each annotated with reported pKd.
ENDPOINT NAME: pKd

In [3]: df
Out[3]:
   residue_string  result
0       VVPLYDTPL  ≤ 4.70
1       FIVEHINAM  ≤ 4.70
2       VSRDFDDVY  ≤ 4.70

====

molecular target: HLA-A*11:01; assay: IEDB peptide-MHC binding, purified MHC/competitive/fluorescence; bounds were set here for any values at or beyond the usual limits of such assays; details: source organism: Homo sapiens
ENDPOINT NAME: IC50

>>> df
   residue_string  endpoint_name   result
0     ILNRETLLDFV           IC50  ≥ 20 µM

====

biological target: HLA-A*02:01; assay: IEDB peptide-MHC binding, purified MHC/competitive/fluorescence; bounds were set here for any values at or beyond the usual limits of such assays; conditions: source organism: Vaccinia virus
pIC50: −log10 of the molar value.
ENDPOINT NAME: pIC50

In [3]: df
Out[3]:
   residue_string  limit_sign  numeric_readout
0       FGNLSPETL           =             4.23
1       VSYNDYFNV           =             6.13
2       NLEDLIEWA           ≤             3.86
3       LRYLLFGIK           ≤             3.08

====

biological target: HLA-B*15:01; test: IEDB peptide-MHC binding, purified MHC/competitive/fluorescence; filed as Kd, often an IC50 or EC50 that approximates it; bounds were set here for any values at or beyond the usual limits of such assays; details: source organism: Homo sapiens
Kd values for the sequences below.
ENDPOINT NAME: Kd

>>> print(df.to_string())
   residue_string  target_or_system   result
0       NTAINFFLY       HLA-B*15:01  ≥ 20 µM
1       FAAPHRGVA       HLA-B*15:01  ≥ 20 µM

====

biological target: HLA-B*53:01; assay: IEDB peptide-MHC binding, purified MHC/competitive/fluorescence; filed as Kd, often an IC50 or EC50 that approximates it; bounds were set here for any values at or beyond the usual limits of such assays; conditions: source organism: Shigella flexneri 5 str. 8401
pKd: −log10 of the molar value.
ENDPOINT NAME: pKd

>>> df
   residue_string  endpoint_name  result
0       FGALFMWLL            pKd  ≤ 5.30

====

target: HLA-A*11:01; assay: IEDB peptide-MHC binding, purified MHC/competitive/fluorescence; filed as Kd, often an IC50 or EC50 that approximates it; bounds were set here for any values at or beyond the usual limits of such assays; conditions: source organism: Human immunodeficiency virus 1
ENDPOINT NAME: Kd (nM)

>>> print(df.to_string())
   residue_string  target_or_system  endpoint_name  readout_unit  numeric_readout
0      IATLYCVHQK       HLA-A*11:01             Kd            nM             1700

====

biological target: HLA-A*02:01; test: IEDB peptide-MHC binding, purified MHC/competitive/fluorescence; filed as Kd, often an IC50 or EC50 that approximates it; bounds were set here for any values at or beyond the usual limits of such assays; settings: source organism: Vaccinia virus Tian Tan
pKd: −log10 of the molar value.
ENDPOINT NAME: pKd

>>> df
   residue_string  numeric_readout
0      FTFSNVCESV             8.08

====

biological target: HLA-B*27:05; assay: IEDB peptide-MHC binding, purified MHC/direct/fluorescence; filed as Kd, often an IC50 or EC50 that approximates it; bounds were set here for any values at or beyond the usual limits of such assays; details: source organism: Cryptosporidium parvum
ENDPOINT NAME: Kd (µM)

   residue_string  numeric_readout
0       RKWGLDFCY           0.0555

====

molecular target: HLA-B*57:01; test: IEDB peptide-MHC binding, purified MHC/competitive/radioactivity; filed as Kd, often an IC50 or EC50 that approximates it; bounds were set here for any values at or beyond the usual limits of such assays; conditions: source organism: Dengue virus 3 Martinique/1243/1999
Measured Kd, listed per entry for reference.
ENDPOINT NAME: Kd

   residue_string  endpoint_name    result
0      ASSLLRNDVP             Kd  11600 nM
1       RVMGITAEW             Kd   2.97 nM
2      LTSRDGEPRM             Kd   1320 nM
3       IAIGIITLY             Kd   3.62 nM

====

molecular target: HLA-B*39:01; assay: IEDB peptide-MHC binding, purified MHC/competitive/fluorescence; filed as Kd, often an IC50 or EC50 that approximates it; bounds were set here for any values at or beyond the usual limits of such assays; conditions: source organism: Homo sapiens
pKd: −log10 of the molar value.
ENDPOINT NAME: pKd

In [3]: df
Out[3]:
   residue_string  target_or_system  result
0       NTAINFFLY       HLA-B*39:01  ≤ 4.70

====

target: HLA-A*31:01; assay: IEDB peptide-MHC binding, purified MHC/direct/fluorescence; filed as Kd, often an IC50 or EC50 that approximates it; bounds were set here for any values at or beyond the usual limits of such assays; conditions: source organism: Vibrio vulnificus
ENDPOINT NAME: Kd

>>> print(df.to_string())
   residue_string  target_or_system   result
0       VTFFCVMTY       HLA-A*31:01  ≥ 20 µM
